This collection of values is drawn from patent US9796711B2.

Below, each entry is listed alongside its reported log10 of EC50.
biological target: ΔF508-CFTR (Homo sapiens, UniProt P13569, DEL508-508); construct: host or cells: CFBE41o-, doxycycline-inducible; assay: CFTR cell surface levels using HRP-tagged ΔF508-CFTR expressing CFBE cells, in the presence of a co-corrector; type: cell-based; conditions: HRP-tagged ΔF508-CFTR expressing CFBE cells, in the presence of 3 μM co-corrector; read-out: EC50
Sequence (P13569 with tags, fused parts or gaps DEL508-508): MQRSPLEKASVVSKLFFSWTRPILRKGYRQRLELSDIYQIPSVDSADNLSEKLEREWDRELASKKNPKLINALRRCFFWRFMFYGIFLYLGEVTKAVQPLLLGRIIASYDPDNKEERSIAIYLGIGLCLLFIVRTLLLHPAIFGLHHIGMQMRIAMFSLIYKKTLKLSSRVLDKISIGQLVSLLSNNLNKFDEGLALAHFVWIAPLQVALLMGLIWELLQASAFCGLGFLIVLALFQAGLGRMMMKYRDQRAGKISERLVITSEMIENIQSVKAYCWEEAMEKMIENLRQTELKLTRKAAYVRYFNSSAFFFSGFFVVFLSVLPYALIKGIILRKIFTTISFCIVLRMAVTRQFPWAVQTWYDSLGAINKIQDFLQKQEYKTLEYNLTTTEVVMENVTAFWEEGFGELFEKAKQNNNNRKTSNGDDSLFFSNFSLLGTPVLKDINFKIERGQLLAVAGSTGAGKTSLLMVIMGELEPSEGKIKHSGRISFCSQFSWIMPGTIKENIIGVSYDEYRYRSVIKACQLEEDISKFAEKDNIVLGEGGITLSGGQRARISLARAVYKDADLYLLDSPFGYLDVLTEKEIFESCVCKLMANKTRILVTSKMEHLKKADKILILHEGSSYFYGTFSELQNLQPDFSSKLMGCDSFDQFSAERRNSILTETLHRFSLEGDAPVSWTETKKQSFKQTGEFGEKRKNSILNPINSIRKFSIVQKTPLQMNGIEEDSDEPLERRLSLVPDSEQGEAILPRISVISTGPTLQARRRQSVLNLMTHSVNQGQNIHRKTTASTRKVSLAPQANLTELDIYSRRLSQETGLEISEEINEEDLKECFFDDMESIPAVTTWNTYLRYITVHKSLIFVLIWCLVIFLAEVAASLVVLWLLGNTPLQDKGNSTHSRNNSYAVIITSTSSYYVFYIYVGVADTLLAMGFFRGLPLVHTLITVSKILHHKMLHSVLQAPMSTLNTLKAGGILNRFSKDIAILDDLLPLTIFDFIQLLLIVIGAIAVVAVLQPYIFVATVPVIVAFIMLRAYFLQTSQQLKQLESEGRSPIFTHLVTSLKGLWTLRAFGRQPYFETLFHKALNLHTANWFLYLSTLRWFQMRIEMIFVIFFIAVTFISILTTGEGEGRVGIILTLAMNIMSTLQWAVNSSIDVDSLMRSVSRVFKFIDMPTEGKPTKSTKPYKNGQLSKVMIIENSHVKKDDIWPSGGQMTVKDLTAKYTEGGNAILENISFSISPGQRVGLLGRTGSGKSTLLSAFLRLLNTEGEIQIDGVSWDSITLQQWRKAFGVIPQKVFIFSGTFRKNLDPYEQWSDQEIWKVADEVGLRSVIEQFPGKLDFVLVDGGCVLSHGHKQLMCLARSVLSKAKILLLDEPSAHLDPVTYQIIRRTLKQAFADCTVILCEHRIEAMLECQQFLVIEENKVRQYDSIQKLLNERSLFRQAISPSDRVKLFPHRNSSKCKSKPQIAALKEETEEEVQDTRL
Parameter value (number): base-10 log of EC50 in µM.

Consider the worked cases shown below.
O=C(O)c1cc(N2CCC(N3CCOCC3)CC2)c2c(C3CCC3)nn(-c3cccc(F)c3)c2n1 :: -0.84
CC(=O)NC1CCN(c2cc(C(=O)O)nc3c2c(C)nn3-c2ccccc2)CC1 :: 0.62
Cc1nn(-c2ccccc2)c2nc(C(=O)O)cc(-c3ccc(N4CCOC(C)(C)C4)cc3)c12 :: -0.20
COCCN(CCOC)c1ccc(-c2cc(C(=O)O)nc3c2c(C(C)C)nn3-c2ccnc(N3CCOCC3)c2)cn1 :: -0.58
Cc1nn(-c2ccccc2)c2nc(C(=O)O)cc(N3CC4(CCCOC4)C3)c12 :: 0.40

Name the reported log10 of EC50 value associated with the compound `CN(c1cc(C(=O)O)nc2c1c(C1CCC1)nn2-c1ccccc1)[C@H]1C[C@@H](O)C1`
0.09

Thanks! And `Cc1nn(-c2ccccc2)c2nc(C(=O)O)cc(N3CCCCC3)c12` ?
0.43

====

molecular target: ΔF508-CFTR (Homo sapiens, UniProt P13569, DEL508-508); construct: host or cells: CFBE41o-, doxycycline-inducible; assay: CFTR cell surface levels using HRP-tagged ΔF508-CFTR expressing CFBE cells, in the presence of a co-corrector; format: cell-based; details: HRP-tagged ΔF508-CFTR expressing CFBE cells, in the presence of 3 μM co-corrector; read-out: EC50
READOUT TYPE: EC50 (nM)
Your answer is read as nM, so omit the unit and give the number.

Worked examples follow.
O=C(O)c1cc(N2CCC(N3CCC(F)(F)CC3)CC2)c2c(C3CCC3)nn(-c3ccc(F)cc3)c2n1 :: 88.9
CC(C)c1nn(C2CCCCC2)c2nc(C(=O)O)cc(-c3cnc(N4CCCC(C#N)C4)nc3)c12 (centres unmarked) :: 602
O=C(O)c1cc(N2CCC(C3CCN(C4COC4)CC3)CC2)c2c(C3CCC3)nn(-c3ccccc3)c2n1 :: 42.2

Bench note: what EC50 did `COCC1CCN(c2cc(C(=O)O)nc3c2c(C2CCC2)nn3-c2ccnc(C3CCOCC3)c2)CC1` show?
46.4

And what about the molecule `O=C(O)c1cc(N2CCN(CC3OCCO3)CC2)c2c(C3CCC3)nn(-c3ccccc3)c2n1` ?
236

Also `CS(=O)(=O)N1CCN(c2cc(C(=O)O)nc3c2c(C2CCC2)nn3-c2ccccc2)CC1` ?
630

Also `Cc1nn(-c2ccccc2)c2nc(C(=O)O)cc(N3CCCC4(CC4)C3)c12` ?
1610

====

Measured % Activation values are reported for all entries that follow.
target: ΔF508-CFTR (Homo sapiens, UniProt P13569, DEL508-508); construct: host or cells: CFBE41o-, doxycycline-inducible; assay: CFTR cell surface levels using HRP-tagged ΔF508-CFTR expressing CFBE cells, in the presence of a co-corrector; assay type: cell-based; details: HRP-tagged ΔF508-CFTR expressing CFBE cells, in the presence of 3 μM co-corrector
Your answer is read as %, so omit the unit and give the number.

// below: answered molecules
CC(C)c1nn(-c2ccc(F)cc2)c2nc(C(=O)O)cc(N3CCCN(C(C)C)CC3)c12 :: 175.3
COCC1CCN(c2cc(C(=O)O)nc3c2c(C)nn3-c2ccccc2)CC1 :: 349.55

Reported % Activation, molecule `COCC1CCN(c2cc(C(=O)O)nc3c2c(C2CCC2)nn3-c2ccccc2)CC1` : ____
512.4

Ok, now `CC(C)c1nn(-c2ccc(F)cc2)c2nc(C(=O)O)cc(NC(=O)C3CCOCC3)c12`
120.6

What do we get for `CC1(CCOc2cc(C(=O)O)nc3c2c(C2CCC2)nn3-c2ccccc2)CC1` ?
283

Again, but for `O=C(O)c1cc(N2CCC(CN3CCCCC3)CC2)c2c(C3CCC3)nn(-c3ccccc3)c2n1`
431.1

What about this molecule? `CC(C)c1nn(-c2ccnc(N3CCCC3)c2)c2nc(C(=O)O)cc(-c3ccc(N4CCC(C#N)CC4)cc3)c12`
519.35

Thanks! And `O=C(O)c1cc(N2CC[C@@H](O)[C@H](F)C2)c2c(C3CCC3)nn(-c3ccccc3)c2n1` ?
328.25

====

Reported % Activation values are given for each entry in this list.
biological target: ΔF508-CFTR (Homo sapiens, UniProt P13569, DEL508-508); construct: host or cells: CFBE41o-, doxycycline-inducible; test: CFTR cell surface levels using HRP-tagged ΔF508-CFTR expressing CFBE cells, intrinsic corrector capacity; assay type: cell-based; settings: HRP-tagged ΔF508-CFTR CFBE41o- cells, compounds alone (intrinsic corrector capacity), 20 hours at 33° C.; positive control 3 μM corrector
I'd appreciate it if you wrote the number followed by its unit.

Cc1nn(-c2cccc(Cl)c2)c2nc(C(=O)O)cc(-c3ccc(N4CCOCC4)cc3)c12 [compound 11] :: 134.3%

// % Activation lookup, key: Cc1cccc(-n2nc(C(C)C)c3c(N4CCCC4)cc(C(=O)O)nc32)c1 [compound 173]
182.82%

Param item: Cc1cccc(-n2nc(C(C)C)c3c(N4CC(F)C4)cc(C(=O)O)nc32)c1 [compound 174]
90.21%

Same read-out for CC(C)c1nn(-c2cccc(F)c2)c2nc(C(=O)O)cc(-c3ccc(N4CCC(C#N)CC4)nc3)c12 [compound 285] ?
255.73%

Ok, now CC(=O)N1CCN(c2cc(C(=O)O)nc3c2c(C)nn3-c2ccccc2)CC1 [compound 132]
13.45%

Please give the result for CC(C)c1nn(-c2cccc(N(C)C)c2)c2nc(C(=O)O)cc(N3CCCCC3)c12 [compound 328] too.
196.9%

====

biological target: ΔF508-CFTR (Homo sapiens, UniProt P13569, DEL508-508); construct: host or cells: CFBE41o-, doxycycline-inducible; experiment: CFTR cell surface levels using HRP-tagged ΔF508-CFTR expressing CFBE cells, in the presence of a co-corrector; assay type: cell-based; settings: HRP-tagged ΔF508-CFTR expressing CFBE cells, in the presence of 3 μM co-corrector
// classify: if (% Activation < 300%) true else false

// known answers, use as guide
N#CC1COC2(C1)CN(c1cc(C(=O)O)nc3c1c(C1CCC1)nn3-c1ccccc1)C2 (stereo not shown) :: true
O=C(O)c1cc(N2CCC(F)(F)CC2)c2c(C3CCC3)nn(-c3ccccc3)c2n1 :: true
Cc1nn(C2CCCCC2)c2nc(C(=O)O)cc(-c3cnc(N(C)C)nc3)c12 :: true
COC(C)(C)C1CCN(c2cc(C(=O)O)nc3c2c(C(C)C)nn3-c2ccc(F)cc2)CC1 :: false

Problem: For the molecule `Cc1nn(-c2ccccc2)c2nc(C(=O)O)cc(-c3ccc(N4CC5(COC5)C4)cc3)c12` , is % Activation under 300%?
false

Can you check `N#CC1CCN(c2ccc(-c3cc(C(=O)O)nc4c3c(C3CCC3)nn4C3CCCCC3)cn2)CC1` next?
false

Then `CC(C)Oc1nn(-c2ccccc2)c2nc(C(=O)O)cc(-c3ccc(N4CCOCC4)cc3)c12` ?
false

Also, `CC(C)c1nn(-c2ccc(F)cc2)c2nc(C(=O)O)cc(N3CCN(C4CCN(C)CC4)CC3)c12` please.
true

// repeat for `COCCN(C)c1cccc(-n2nc(C(C)C)c3c(-c4ccc(N5CCOCC5)cc4)cc(C(=O)O)nc32)c1` and report
false

Param item: `O=C(O)c1cc(N2CCC(OCCN3CCCCC3)CC2)c2c(C3CCC3)nn(-c3ccccc3)c2n1`
false

Then `Cc1nn(-c2ccc(F)cc2F)c2nc(C(=O)O)cc(-c3ccc(N4CCOCC4)cc3)c12` ?
false

Next molecule: `CCN(C1CCN(c2cc(C(=O)O)nc3c2c(C(C)C)nn3-c2ccc(F)cc2)CC1)C1COC1`
false

====

biological target: ΔF508-CFTR (Homo sapiens, UniProt P13569, DEL508-508); construct: host or cells: CFBE41o-, doxycycline-inducible; assay: CFTR cell surface levels using HRP-tagged ΔF508-CFTR expressing CFBE cells, in the presence of a co-corrector; type: cell-based; conditions: HRP-tagged ΔF508-CFTR expressing CFBE cells, in the presence of 3 μM co-corrector
READOUT TYPE: % Activation

Take a look at these entries with their results.
CCOCC(=O)N1CCN(c2cc(C(=O)O)nc3c2c(C2CCC2)nn3-c2ccccc2)CC1 [compound 696] :: 346.8%
CC(C)c1nn(-c2cccc(N(C)C)c2)c2nc(C(=O)O)cc(-c3ccc(N4CCC(C#N)CC4)cc3)c12 [compound 176] :: 619.28%
Cc1nn(-c2ccccc2)c2nc(C(=O)O)cc(O[C@H]3C[C@H](N4CCCCC4)C3)c12 [compound 345] :: 129.4%

Now for a further compound.
Kindly state the measured % Activation obtained for Cc1nn(-c2ccccc2)c2nc(C(=O)O)cc(N3CCN4C(=O)OCC4C3)c12 (stereo not shown) [compound 301] with ΔF508-CFTR (Homo sapiens, UniProt P13569, DEL508-508).
117.35%
